Hey, just so you know, these numbers are from patent US20110262445A1.

Measured Kd accompanies every entry in the list below.
Target: T1, human IL-12 (human, UniProt P29460 23-328; P29459 23-219)
T1 construct: Recombinant (Peprotech); FLAG-tagged IL-12 in the flow cytometry assays, biotinylated in the IL-12Rβ2 assay; also called hIL-12
T1 sequence 1: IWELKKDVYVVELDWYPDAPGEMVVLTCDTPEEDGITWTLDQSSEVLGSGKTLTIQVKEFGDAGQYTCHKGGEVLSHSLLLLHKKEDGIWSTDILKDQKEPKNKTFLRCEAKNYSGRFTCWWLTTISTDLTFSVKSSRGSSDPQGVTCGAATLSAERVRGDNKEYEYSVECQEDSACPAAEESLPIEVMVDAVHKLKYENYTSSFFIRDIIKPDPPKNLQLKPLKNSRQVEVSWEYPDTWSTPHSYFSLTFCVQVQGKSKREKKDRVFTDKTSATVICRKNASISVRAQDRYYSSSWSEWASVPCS
T1 sequence 2: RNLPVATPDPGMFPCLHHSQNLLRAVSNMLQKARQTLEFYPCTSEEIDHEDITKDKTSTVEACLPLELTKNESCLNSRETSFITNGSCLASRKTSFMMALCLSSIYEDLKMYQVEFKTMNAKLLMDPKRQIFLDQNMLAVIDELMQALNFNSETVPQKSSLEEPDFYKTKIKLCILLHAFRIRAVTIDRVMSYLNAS
Assay: SPR, purified scFv captured via FLAG
I only need the number, in nM, no unit after it.

[
  {
    "binder": "scFv AU-G9 (scFv, scFv-80 variant: VH Q43R; VL I55T; not shown: proprietary C-terminal FLAG tag) scFv: QVQLVQSGAEVKKPGASVKVSCKASGYTFTDYYLHWVRQAPGRGLEWMGWIDPENGDTEYAPKFQGRVTMTTDTSTSTAYMELRSLRSDDTAVYYCNANKELRYFDVWGQGTMVTVSSGGGGSGGGGSGGGGSEIVMTQSPATLSVSPGERATLSCRASQSISINLHWYQQKPGQAPRLLIYFASQSTSGIPARFSGSGSGTEFTLTISSLQSEDFAVYYCQQSNSFPLTFGGGTKVEIKR",
    "unit.tag": "nM",
    "Kd": 0.11
  }
]

Switching to the query record.
input: Give its Kd value. Item: scFv CR-B1 (scFv, scFv-80 variant: VH D85E; not shown: proprietary C-terminal FLAG tag) scFv: QVQLVQSGAEVKKPGASVKVSCKASGYTFTDYYLHWVRQAPGQGLEWMGWIDPENGDTEYAPKFQGRVTMTTDTSTSTAYMELRSLRSEDTAVYYCNANKELRYFDVWGQGTMVTVSSGGGGSGGGGSGGGGSEIVMTQSPATLSVSPGERATLSCRASQSISINLHWYQQKPGQAPRLLIYFASQSISGIPARFSGSGSGTEFTLTISSLQSEDFAVYYCQQSNSFPLTFGGGTKVEIKR
output: 0.23
